Target: Vasopressin V2 receptor (Homo sapiens, UniProt P30518)
Sequence (P30518 whole entry): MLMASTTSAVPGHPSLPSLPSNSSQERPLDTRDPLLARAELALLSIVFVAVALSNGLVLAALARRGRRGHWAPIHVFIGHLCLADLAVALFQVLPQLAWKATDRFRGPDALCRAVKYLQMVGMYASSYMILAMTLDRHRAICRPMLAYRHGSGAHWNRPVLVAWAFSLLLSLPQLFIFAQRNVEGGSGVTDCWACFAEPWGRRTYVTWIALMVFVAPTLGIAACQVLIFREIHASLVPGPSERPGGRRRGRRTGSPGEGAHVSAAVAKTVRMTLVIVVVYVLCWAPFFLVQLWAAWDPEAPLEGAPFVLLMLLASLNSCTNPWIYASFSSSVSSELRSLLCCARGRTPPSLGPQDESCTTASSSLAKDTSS
Test: Agonist activity at recombinant human vasopressin V2 receptor expressed in HEK293 cells by luciferase reporter gene assay
Type: functional, cell-based
Settings: read-out: EC50
Bridge positions count the residues as written; N and C are the ends. Square brackets hold non-standard residues; d marks the D form. Peptide text beside a SMILES is read from it. Ala(2-furyl) = N[C@@H](Cc1ccco1)C(=O)O; Orn(iPr) = CC(C)NCCC[C@H](N)C(=O)O
Reported Endpoint: EC50

[[record]]
compound = "CC[C@H](C)[C@@H]1NC(=O)[C@H](Cc2ccco2)NC(=O)[C@@H](N)CSSC[C@@H](C(=O)N2CCC[C@H]2C(=O)N[C@@H](CCCNC(C)C)C(=O)NCC(N)=O)NC(=O)[C@H](CC(N)=O)NC(=O)[C@H](CCC(N)=O)NC1=O (H-C[Ala(2-furyl)]IQNCP[Orn(iPr)]G-NH2; disulfide 1-6)"
target_or_system = "Vasopressin V2 receptor (Homo sapiens, UniProt P30518)"
reported_result = "950 nM"

[[record]]
compound = "N=C(N)NCCC[C@H](NC(=O)[C@@H]1CCCN1C(=O)[C@@H]1CSSC[C@H](N)C(=O)N[C@@H](Cc2ccccc2)C(=O)N[C@@H](Cc2ccccc2)C(=O)N[C@@H](CCC(N)=O)C(=O)N[C@@H](CC(N)=O)C(=O)N1)C(=O)NCC(N)=O (H-CFFQNCPRG-NH2; disulfide 1-6)"
target_or_system = "Vasopressin V2 receptor (Homo sapiens, UniProt P30518)"
reported_result = "1.4 nM"


---

Target: Vasopressin V1a/V2 (Homo sapiens) (UniProt P30518+P37288)
Sequence (P30518 whole entry, looked up): as the sequence (P30518 whole entry) above
Sequence (P37288 whole entry, looked up): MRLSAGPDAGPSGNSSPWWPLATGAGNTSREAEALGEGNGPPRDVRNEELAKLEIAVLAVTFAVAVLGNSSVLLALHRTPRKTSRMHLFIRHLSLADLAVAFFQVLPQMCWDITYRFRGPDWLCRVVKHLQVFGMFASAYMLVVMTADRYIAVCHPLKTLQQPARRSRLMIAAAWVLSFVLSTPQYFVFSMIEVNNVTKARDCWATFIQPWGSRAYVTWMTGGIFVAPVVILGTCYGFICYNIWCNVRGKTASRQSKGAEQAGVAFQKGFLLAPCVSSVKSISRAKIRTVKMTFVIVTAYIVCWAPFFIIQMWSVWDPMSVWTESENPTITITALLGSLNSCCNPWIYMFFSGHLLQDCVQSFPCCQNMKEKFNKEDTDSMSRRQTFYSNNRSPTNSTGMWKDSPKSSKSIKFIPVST
Experiment: Selectivity ratio of EC50 for human vasopressin V2 receptor to EC50 for human vasopressin V1a receptor
Bridge positions count the residues as written; N and C are the ends. Square brackets hold non-standard residues; d marks the D form. Peptide text beside a SMILES is read from it. Ala(cPent) = N[C@@H](CC1CCCC1)C(=O)O; Dab = NCC[C@H](N)C(=O)O; Dap = NC[C@H](N)C(=O)O
Ratio EC50 reference
Reported Endpoint: Ratio EC50

[[record]]
compound = "CC[C@H](C)[C@@H]1NC(=O)[C@H](CC2CCCC2)NC(=O)[C@@H](N)CSSC[C@@H](C(=O)N2CCC[C@H]2C(=O)N[C@@H](CCN)C(=O)NCC(N)=O)NC(=O)[C@H](CC(N)=O)NC(=O)[C@H](CC(N)=O)NC1=O (H-C[Ala(cPent)]INNCP[Dab]G-NH2; disulfide 1-6)"
reported_endpoint = "Ratio EC50"
qualifier_sign = ">"
reported_result = 900

[[record]]
compound = "CC[C@H](C)[C@@H]1NC(=O)[C@H](Cc2ccccc2)NC(=O)[C@@H](N)CSSC[C@@H](C(=O)N2CCC[C@H]2C(=O)N[C@@H](CN)C(=O)NCC(N)=O)NC(=O)[C@H](CC(N)=O)NC(=O)[C@H](CCC(N)=O)NC1=O (H-CFIQNCP[Dap]G-NH2; disulfide 1-6)"
reported_endpoint = "Ratio EC50"
qualifier_sign = "="
reported_result = 24


---

Molecular target: UniProt P37288
Sequence (P37288 whole entry): as the sequence (P37288 whole entry, looked up) above
Assay: Agonist activity at recombinant human vasopressin V1a receptor expressed in HEK293 cells by luciferase reporter gene assay
Type: functional, cell-based
Settings: read-out: EC50
Bridge positions count the residues as written; N and C are the ends. Square brackets hold non-standard residues; d marks the D form. Peptide text beside a SMILES is read from it. * marks the point of attachment. Ala(cPent) = N[C@@H](CC1CCCC1)C(=O)O; NHCH(CH2OH)2 = OCC(CO)N*; Orn = NCCC[C@H](N)C(=O)O; Ac4c = NC1(C(=O)O)CCC1
Reported Endpoint: EC50 (nM)

[[record]]
compound = "CC[C@H](C)[C@@H]1NC(=O)[C@H](Cc2ccccc2)NC(=O)[C@@H](N)CSSC[C@@H](C(=O)N2CCC[C@H]2C(=O)N[C@@H](CCCN)C(=O)NCC(N)=O)NC(=O)[C@H](CC(N)=O)NC(=O)[C@H](CC(=O)NC(CO)CO)NC1=O (H-CFID(NHCH(CH2OH)2)NCP[Orn]G-NH2; disulfide 1-6)"
target_or_system = "UniProt P37288"
reported_endpoint = "EC50"
unit_annotation = "nM"
reported_result = 16

[[record]]
compound = "CC[C@H](C)[C@@H]1NC(=O)[C@H](CC2CCCC2)NC(=O)[C@@H](N)CSSC[C@@H](C(=O)N2CCC[C@H]2C(=O)N[C@@H](CCCN)C(=O)NCC(N)=O)NC(=O)[C@H](CC(N)=O)NC(=O)[C@H](CC(N)=O)NC1=O (H-C[Ala(cPent)]INNCP[Orn]G-NH2; disulfide 1-6)"
target_or_system = "UniProt P37288"
reported_endpoint = "EC50"
unit_annotation = "nM"
reported_result = 7.7

[[record]]
compound = "CC[C@H](C)[C@@H]1NC(=O)C2(CCC2)NC(=O)[C@@H](N)CSSC[C@@H](C(=O)N2CCC[C@H]2C(=O)N[C@@H](CCCN)C(=O)NCC(N)=O)NC(=O)[C@H](CC(N)=O)NC(=O)[C@H](CC(N)=O)NC1=O (H-C[Ac4c]INNCP[Orn]G-NH2; disulfide 1-6)"
target_or_system = "UniProt P37288"
reported_endpoint = "EC50"
unit_annotation = "nM"
reported_result = 7.9

